- Tested on: Seed linoleate 13S-lipoxygenase-1 (Glycine max) (UniProt P08170)
- Sequence (whole entry): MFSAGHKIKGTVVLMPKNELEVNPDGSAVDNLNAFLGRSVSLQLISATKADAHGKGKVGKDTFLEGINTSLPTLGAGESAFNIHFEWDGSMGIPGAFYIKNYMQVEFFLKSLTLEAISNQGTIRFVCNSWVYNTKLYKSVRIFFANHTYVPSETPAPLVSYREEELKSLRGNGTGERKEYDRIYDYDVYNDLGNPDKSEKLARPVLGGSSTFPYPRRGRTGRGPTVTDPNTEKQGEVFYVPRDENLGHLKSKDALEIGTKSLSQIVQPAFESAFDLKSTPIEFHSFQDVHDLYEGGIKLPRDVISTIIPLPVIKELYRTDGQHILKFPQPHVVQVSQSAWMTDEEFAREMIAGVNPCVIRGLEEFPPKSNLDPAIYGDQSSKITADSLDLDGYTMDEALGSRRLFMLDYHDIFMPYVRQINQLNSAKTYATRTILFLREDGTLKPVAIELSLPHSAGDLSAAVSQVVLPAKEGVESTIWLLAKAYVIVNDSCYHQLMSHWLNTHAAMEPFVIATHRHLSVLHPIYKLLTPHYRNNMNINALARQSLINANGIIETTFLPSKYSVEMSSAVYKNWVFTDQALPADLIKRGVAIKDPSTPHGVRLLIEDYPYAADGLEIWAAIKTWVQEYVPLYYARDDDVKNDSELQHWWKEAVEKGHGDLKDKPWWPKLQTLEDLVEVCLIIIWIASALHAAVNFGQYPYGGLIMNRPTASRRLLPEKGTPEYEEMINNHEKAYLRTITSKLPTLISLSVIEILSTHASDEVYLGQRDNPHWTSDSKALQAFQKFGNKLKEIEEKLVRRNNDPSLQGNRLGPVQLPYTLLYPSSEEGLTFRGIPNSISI
- Test protocol: Inhibition of LDL oxidation induced by soybean lipoxygenase (SLO) at 5 uM expressed as % control.
- Type: functional
Observation type: LDL oxidation remaining, % of control (%)

| Compound smiles | Measured result |
| --- | --- |
| CC(C)(C)c1cc2c(c(C(C)(C)C)c1O)CC(Cc1ccccc1)(Cc1ccccc1)O2 | 3.6 |
| CCCCC1(CCCC)Cc2c(cc(C(C)(C)C)c(O)c2C(C)(C)C)O1 | 0.5 |
| CC(C)(C)c1cc2c(c(C(C)(C)C)c1O)CC1(CCCCC1)O2 | 0 |

P: CC(C)(C)c1cc2c(c(C(C)(C)C)c1O)CC1(CCCCCC1)O2
Q: CCCCCCCC1(CCCCCCC)Cc2c(cc(C(C)(C)C)c(O)c2C(C)(C)C)O1
Lookup: Quick check, higher LDL oxidation remaining, % of control between P and Q ? Refer to your chosen item by its label in the answer.
Found: Q
(Q: 18.5%, P: 2.3%)

====

- Test protocol: Inhibition of MCLA chemiluminescence generated by autoxidation of linoleic acid
Each entry below carries its recorded IC50.
# number only, unit µM dropped from output

# count of solved cases: 2
| Compound smiles | Units label | IC50 |
| --- | --- | --- |
| CC(C)(C)c1cc2c(c(C(C)(C)C)c1O)CC1(CCCCCC1)O2 | µM | 7.9 |
| CC1(C)Cc2c(cc(C(C)(C)C)c(O)c2C(C)(C)C)O1 | µM | 6.7 |

Note: attention shifts to another entry.
Lookup: Dear colleague, please send me the reported IC50 for CC(C)(C)c1cc2c(c(C(C)(C)C)c1O)CC1(CCOCC1)O2 when you can.
Found: 8.2
